- target or system: Sodium channel protein type 2 subunit alpha (Homo sapiens, UniProt Q99250)
- Sequence (Q99250 whole entry, looked up): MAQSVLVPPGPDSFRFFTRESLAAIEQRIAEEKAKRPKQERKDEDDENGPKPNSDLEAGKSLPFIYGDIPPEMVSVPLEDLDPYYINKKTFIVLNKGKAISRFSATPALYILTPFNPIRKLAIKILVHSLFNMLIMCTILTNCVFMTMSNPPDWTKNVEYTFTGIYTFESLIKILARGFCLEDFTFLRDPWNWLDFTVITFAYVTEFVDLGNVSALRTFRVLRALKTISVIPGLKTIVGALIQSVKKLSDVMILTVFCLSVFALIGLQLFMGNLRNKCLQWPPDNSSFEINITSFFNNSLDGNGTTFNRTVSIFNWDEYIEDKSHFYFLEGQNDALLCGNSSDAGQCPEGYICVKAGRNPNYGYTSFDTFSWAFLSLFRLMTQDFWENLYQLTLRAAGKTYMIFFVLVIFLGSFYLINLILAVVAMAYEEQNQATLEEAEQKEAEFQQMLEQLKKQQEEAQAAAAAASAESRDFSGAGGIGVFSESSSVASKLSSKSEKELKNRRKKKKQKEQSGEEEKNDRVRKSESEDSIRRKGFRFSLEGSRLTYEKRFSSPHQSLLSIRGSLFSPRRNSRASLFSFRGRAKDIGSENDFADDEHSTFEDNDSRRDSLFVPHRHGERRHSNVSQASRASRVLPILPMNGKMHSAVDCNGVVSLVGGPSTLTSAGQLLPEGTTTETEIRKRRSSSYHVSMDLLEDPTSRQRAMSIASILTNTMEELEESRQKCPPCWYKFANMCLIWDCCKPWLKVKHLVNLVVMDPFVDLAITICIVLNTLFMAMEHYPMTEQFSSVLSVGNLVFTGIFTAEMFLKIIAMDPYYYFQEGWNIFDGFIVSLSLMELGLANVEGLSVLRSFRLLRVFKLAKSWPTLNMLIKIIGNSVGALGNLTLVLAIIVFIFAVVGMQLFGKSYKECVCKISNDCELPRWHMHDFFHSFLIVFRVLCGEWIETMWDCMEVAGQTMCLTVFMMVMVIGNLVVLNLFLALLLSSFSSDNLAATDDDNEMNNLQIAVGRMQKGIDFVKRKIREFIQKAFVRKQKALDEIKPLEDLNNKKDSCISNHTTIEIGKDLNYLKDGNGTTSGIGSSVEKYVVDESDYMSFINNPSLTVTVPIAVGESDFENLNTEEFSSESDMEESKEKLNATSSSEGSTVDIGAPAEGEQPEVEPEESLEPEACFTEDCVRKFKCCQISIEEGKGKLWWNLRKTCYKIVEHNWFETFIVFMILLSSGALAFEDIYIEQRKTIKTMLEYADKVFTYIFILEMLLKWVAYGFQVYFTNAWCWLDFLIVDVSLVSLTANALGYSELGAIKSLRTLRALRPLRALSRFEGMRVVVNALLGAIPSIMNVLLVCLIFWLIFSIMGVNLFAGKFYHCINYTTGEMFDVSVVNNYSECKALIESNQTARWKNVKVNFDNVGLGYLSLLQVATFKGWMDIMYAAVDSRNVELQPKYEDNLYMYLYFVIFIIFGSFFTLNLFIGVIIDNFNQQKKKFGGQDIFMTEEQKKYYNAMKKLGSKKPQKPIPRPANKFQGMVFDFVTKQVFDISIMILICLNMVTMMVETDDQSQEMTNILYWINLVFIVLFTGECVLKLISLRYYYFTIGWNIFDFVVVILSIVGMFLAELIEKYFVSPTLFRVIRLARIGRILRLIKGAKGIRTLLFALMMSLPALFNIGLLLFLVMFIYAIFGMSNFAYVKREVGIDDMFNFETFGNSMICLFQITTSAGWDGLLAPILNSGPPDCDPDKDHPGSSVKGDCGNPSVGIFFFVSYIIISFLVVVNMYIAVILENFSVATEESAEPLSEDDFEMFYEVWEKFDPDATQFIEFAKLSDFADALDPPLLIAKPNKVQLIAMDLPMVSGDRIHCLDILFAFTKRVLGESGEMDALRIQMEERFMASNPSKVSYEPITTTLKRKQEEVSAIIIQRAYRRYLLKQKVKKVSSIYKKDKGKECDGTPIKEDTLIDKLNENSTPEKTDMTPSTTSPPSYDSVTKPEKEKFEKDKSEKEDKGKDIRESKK
- test name: Inhibition of human Nav1.2 channel expressed in HEK cells at 10 uM by patch-clamp electrophysiology method
- Type: cell-based
- recorded conditions: HEK293
The source made the active and inactive calls. No cut-off for these calls is given here.
measured attribute: inhibition

Clc1cccc(-c2nc(-c3ccccc3)c[nH]2)c1 :: 7.5%
O=[N+]([O-])c1ccc(-c2nc(-c3ccccc3)c[nH]2)cc1 :: 57.1%
FC(F)(F)c1cccc(-c2c[nH]c(-c3cccc(C(F)(F)F)c3)n2)c1 :: 100%
O=[N+]([O-])c1ccc(-c2c[nH]c(-c3ccccc3)n2)cc1 :: inactive
Clc1ccc(-c2nc(-c3ccccc3)c[nH]2)cc1 :: 92.5%
O=[N+]([O-])c1ccc(-c2nc(-c3cccc(C(F)(F)F)c3)c[nH]2)cc1 :: 86.9%
FC(F)(F)c1cccc(-c2c[nH]c(-c3ccccc3)n2)c1 :: 82.9%
O=[N+]([O-])c1cccc(-c2nc(-c3ccccc3)c[nH]2)c1 :: inactive
Clc1ccc(-c2c[nH]c(-c3ccccc3)n2)cc1 :: 31.5%
O=[N+]([O-])c1cccc(-c2c[nH]c(-c3ccccc3)n2)c1 :: 15.6%

For the compound COc1cccc(-c2nc(-c3ccccc3)c[nH]2)c1 , what inhibition is on record?
inactive

====

Catalogue of pKa values
- test name: Dissociation constant, pKa by potentiometric pH-metric method
- Type: physicochemical
Lab note: record just the number, no unit beside it.

Known pKa results, listed for orientation:
FC(F)(F)c1cccc(-c2c[nH]c(-c3ccccc3)n2)c1 :: 5.27
Clc1cccc(-c2nc(-c3ccccc3)c[nH]2)c1 :: 5.12
FC(F)(F)c1ccc(-c2c[nH]c(-c3ccccc3)n2)cc1 :: 5.31

For the compound c1ccc(-c2c[nH]c(-c3ccccc3)n2)cc1 , what pKa is on record?
5.65

For the compound Clc1ccc(-c2nc(-c3ccccc3)c[nH]2)cc1 , what pKa is on record?
5.37

For the compound O=[N+]([O-])c1ccc(-c2c[nH]c(-c3ccccc3)n2)cc1 , what pKa is on record?
5.12

For the compound COc1ccc(-c2nc(-c3ccccc3)c[nH]2)cc1 , what pKa is on record?
6.03

For the compound Clc1cccc(-c2c[nH]c(-c3ccccc3)n2)c1 , what pKa is on record?
5.45

For the compound O=[N+]([O-])c1cccc(-c2c[nH]c(-c3ccccc3)n2)c1 , what pKa is on record?
4.82

For the compound COc1ccc(-c2c[nH]c(-c3ccccc3)n2)cc1 , what pKa is on record?
5.83

For the compound O=[N+]([O-])c1ccc(-c2nc(-c3ccccc3)c[nH]2)cc1 , what pKa is on record?
4.74

For the compound COc1cccc(-c2c[nH]c(-c3ccccc3)n2)c1 , what pKa is on record?
5.58

====

- test name: Dissociation constant, pKa by potentiometric pH-metric method
- Type: physicochemical
measured attribute: pKa
Lab note: record just the number, no unit beside it.

FC(F)(F)c1cccc(-c2nc(-c3ccccc3)c[nH]2)c1 :: 5.11
FC(F)(F)c1ccc(-c2nc(-c3ccccc3)c[nH]2)cc1 :: 5.19

For the compound COc1cccc(-c2nc(-c3ccccc3)c[nH]2)c1 , what pKa is on record?
5.57

For the compound Clc1ccc(-c2c[nH]c(-c3ccccc3)n2)cc1 , what pKa is on record?
5.47

For the compound O=[N+]([O-])c1cccc(-c2nc(-c3ccccc3)c[nH]2)c1 , what pKa is on record?
4.92
